test system: hTERT-HMEC; experiment: percentage of EdU-negative (G0-arrested) nuclei per well, 72 h; higher = more G0 arrest; details: protein concentration 0.0225 µM; reference: sequence is the full UniProt precursor, the tested protein was the secreted form or ectodomain;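 note: secreted proteins added to cultured cells, EdU pulse at the end, nuclei found by Hoechst imaging, EdU status from nuclear versus surrounding ring intensity ratio, PBS as neutral control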
# Lookup of reported percentage of EdU-negative keyed by entry
Reply numerically in %, unit not repeated.

Observe how each entry below is paired with its result.
MSFPCKFVASFLLIFNVSSKGAVSKEITNALETWGALGQDINLDIPSFQMSDDIDDIKWEKTSDKKKIAQFRKEKETFKEKDTYKLFKNGTLKIKHLKTDDQDIYKVSIYDTKGKNVLEKIFDLKIQERVSKPKISWTCINTTLTCEVMNGTDPELNLYQDGKHLKLSQRVITHKWTTSLSAKFKCTAGNKVSKESSVEPVSCPEKGLDIYLIIGICGGGSLLMVFVALLVFYITKRKKQRSRRNDEELETRAHRVATEERGRKPHQIPASTPQNPATSQHPPPPPGHRSQAPSHRPPPPGHRVQHQPQKRPPAPSGTQVHQQKGPPLPRPRVQPKPPHGAAENSLSPSSN = 5.27
MALTAHPSCLLALLVAGLAQGIRGPLRAQDLGPQPLELKEAFKLFQIQFNRSYLSPEEHAHRLDIFAHNLAQAQRLQEEDLGTAEFGVTPFSDLTEEEFGQLYGYRRAAGGVPSMGREIRSEEPEESVPFSCDWRKVASAISPIKDQKNCNCCWAMAAAGNIETLWRISFWDFVDVSVQELLDCGRCGDGCHGGFVWDAFITVLNNSGLASEKDYPFQGKVRAHRCHPKKYQKVAWIQDFIMLQNNEHRIAQYLATYGPITVTINMKPLQLYRKGVIKATPTTCDPQLVDHSVLLVGFGSVKSEEGIWAETVSSQSQPQPPHPTPYWILKNSWGAQWGEKGYFRLHRGSNTCGITKFPLTARVQKPDMKPRVSCPP = 4.63
MARVLKAAAANAVGLFSRLQAPIPTVRASSTSQPLDQVTGSVWNLGRLNHVAIAVPDLEKAAAFYKNILGAQVSEAVPLPEHGVSVVFVNLGNTKMELLHPLGRDSPIAGFLQKNKAGGMHHICIEVDNINAAVMDLKKKKIRSLSEEVKIGAHGKPVIFLHPKDCGGVLVELEQA [Q96PE7] = 5.15

Reported percentage of EdU-negative of MASHSGPSTSVLFLFCCLGGWLASHTLPVRLLRPSDDVQKIVEELQSLSKMLLKDVEEEKGVLVSQNYTLPCLSPDAQPPNNIHSPAIRAYLKTIRQLDNKSVIDEIIEHLDKLIFQDAPETNISVPTDTHECKRFILTISQQFSECMDLALKSLTSGAQQATT [Q6EBC2] : 4.96

Reported percentage of EdU-negative of MMPKHCFLGFLISFFLTGVAGTQSTHESLKPQRVQFQSRNFHNILQWQPGRALTGNSSVYFVQYKIMFSCSMKSSHQKPSGCWQHISCNFPGCRTLAKYGQRQWKNKEDCWGTQELSCDLTSETSDIQEPYYGRVRAASAGSYSEWSMTPRFTPWWETKIDPPVMNITQVNGSLLVILHAPNLPYRYQKEKNVSIEDYYELLYRVFIINNSLEKEQKVYEGAHRAVEIEALTPHSSYCVVAEIYQPMLDRRSQRSEERCVEIP [Q969J5] : 4.89

Reported percentage of EdU-negative of MRIMLLFTAILAFSLAQSFGAVCKEPQEEVVPGGGRSKRDPDLYQLLQRLFKSHSSLEGLLKALSQASTDPKESTSPEKRDMHDFFVGLMGKRSVQPDSPTDVNQENVPSFGILKYPPRAE [Q9UHF0] : 5.91
